parameterMeasured: melting point

Answered examples (5):
COc1cc(Cl)c(C(=O)Nc2ccc(C(C)(C)C#N)cc2)cc1OC [Example 155] = 142 to 144 °C
CCc1cc(NC(=O)c2ccc(OC)c(OC)c2)ccc1C(C)(C)CNC(C)=O [Example 200] = 203 to 206 °C
COc1ccc(C(=O)Nc2ccc(C(C)(C)CNC(C)=O)c(-c3cccnc3)c2)cc1OC [Example 195] = 234 to 237 °C
COc1ccc(C(=O)Nc2ccc(C3(CNC(=O)C(C)(C)C)CCCC3)cc2)cc1OC [Example 23] = 165 to 167 °C
COc1ccc(C(=O)Nc2ccc(C(C)(C)CNC(=O)Cc3c[nH]c4ccccc34)cc2)cc1OC [Example 126] = 94 to 96 °C

Note down melting point recorded for COc1ccc(C(=O)Nc2ccc(C3(C#N)CC3)cc2)cc1OC [Example 2] 204 to 207 °C

Note down melting point recorded for COc1ccc(C(=O)Nc2ccc(C(C)(C)C#N)cc2)c(Cl)c1OC [Example 153] 195 to 198 °C

Note down melting point recorded for COc1ccc(C(=O)Nc2ccc(C(C)(C)CNC(=O)c3cnc4ccccn34)cc2)cc1OC [Example 161] 181 to 183 °C

Note down melting point recorded for COc1ccc(C(=O)Nc2ccc(C(C)(C)CNC(=O)c3ccsc3)cc2)cc1OC [Example 72] 189 to 190 °C
